Source listed as ChEMBL document CHEMBL5705899.

- assaySystem: Phosphatidylinositol 4,5-bisphosphate 3-kinase catalytic subunit beta isoform (Homo sapiens, UniProt P42338)
- Sequence (P42338 whole entry, canonical isoform): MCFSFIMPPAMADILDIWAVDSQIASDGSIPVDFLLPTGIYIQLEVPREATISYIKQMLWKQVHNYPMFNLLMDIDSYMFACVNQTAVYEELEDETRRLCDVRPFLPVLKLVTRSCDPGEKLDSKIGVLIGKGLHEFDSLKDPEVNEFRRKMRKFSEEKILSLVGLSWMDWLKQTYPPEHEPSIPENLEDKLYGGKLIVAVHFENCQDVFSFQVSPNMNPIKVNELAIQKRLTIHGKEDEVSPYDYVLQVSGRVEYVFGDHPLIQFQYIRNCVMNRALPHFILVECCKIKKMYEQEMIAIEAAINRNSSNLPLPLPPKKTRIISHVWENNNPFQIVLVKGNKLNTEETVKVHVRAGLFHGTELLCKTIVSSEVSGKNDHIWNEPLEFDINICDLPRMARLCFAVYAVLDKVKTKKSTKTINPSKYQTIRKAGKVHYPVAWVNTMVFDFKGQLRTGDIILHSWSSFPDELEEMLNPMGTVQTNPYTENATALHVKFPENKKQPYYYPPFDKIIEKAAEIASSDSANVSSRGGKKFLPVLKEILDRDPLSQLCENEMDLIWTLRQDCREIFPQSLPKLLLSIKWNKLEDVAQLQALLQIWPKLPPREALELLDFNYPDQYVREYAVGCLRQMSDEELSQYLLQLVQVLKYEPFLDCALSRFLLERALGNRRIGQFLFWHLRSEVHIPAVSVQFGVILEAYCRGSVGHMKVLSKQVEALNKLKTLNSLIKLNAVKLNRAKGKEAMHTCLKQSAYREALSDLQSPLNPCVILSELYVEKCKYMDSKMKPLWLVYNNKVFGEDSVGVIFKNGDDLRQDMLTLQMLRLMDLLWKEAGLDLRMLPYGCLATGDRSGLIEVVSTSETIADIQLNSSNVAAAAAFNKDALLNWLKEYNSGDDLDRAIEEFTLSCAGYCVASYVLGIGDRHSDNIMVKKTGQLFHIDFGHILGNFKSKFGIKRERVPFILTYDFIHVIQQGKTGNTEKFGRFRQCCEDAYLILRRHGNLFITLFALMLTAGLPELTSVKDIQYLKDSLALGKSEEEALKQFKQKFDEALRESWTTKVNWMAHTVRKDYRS
- methodDescription: Inhibition of PI3Kbeta (unknown origin) using PtdIns(4,5)P2 as substrate preincubated for 20 mins followed by substrate addition and measured after 80 mins by Kinase-Glo assay
measurementKind: IC50 (µM)
Your answer should be a plain number; it is taken to be in µM.

**Query** Form field: reported IC50 of CC(C)(O)CNc1ncc(-c2ccnc(Nc3ccnc(Cl)c3)n2)c(CC2CC2)n1
**Result** 21.4

====

- assaySystem: Phosphatidylinositol 4-phosphate 5-kinase type-1 alpha (Homo sapiens, UniProt Q99755)
- Sequence (Q99755 whole entry): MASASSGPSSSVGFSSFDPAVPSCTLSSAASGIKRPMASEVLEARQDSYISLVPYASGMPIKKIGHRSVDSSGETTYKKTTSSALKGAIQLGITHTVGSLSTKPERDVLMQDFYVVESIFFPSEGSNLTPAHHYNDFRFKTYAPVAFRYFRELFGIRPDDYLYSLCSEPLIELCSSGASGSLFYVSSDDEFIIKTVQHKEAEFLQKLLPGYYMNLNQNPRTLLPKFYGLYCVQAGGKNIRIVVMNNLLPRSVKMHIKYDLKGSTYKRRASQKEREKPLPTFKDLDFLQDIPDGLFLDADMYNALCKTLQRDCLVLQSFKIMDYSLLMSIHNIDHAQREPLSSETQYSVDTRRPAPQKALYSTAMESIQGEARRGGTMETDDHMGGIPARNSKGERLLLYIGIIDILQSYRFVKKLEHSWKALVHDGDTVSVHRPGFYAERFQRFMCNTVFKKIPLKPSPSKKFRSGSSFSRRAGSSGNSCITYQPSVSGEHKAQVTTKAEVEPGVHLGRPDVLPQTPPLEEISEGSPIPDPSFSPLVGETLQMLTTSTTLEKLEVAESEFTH
- methodDescription: Inhibition of PIP5K1A (unknown origin) using D-myo-PIP as substrate incubated for 45 mins by ADP-Glo assay
measurementKind: pIC50
Conceptually, pIC50 converts a concentration in mol/L into minus its log10.

**Query** Form field: reported pIC50 of CC(C)(O)CNc1ncc(-c2ccnc(Nc3ccnc(Cl)c3)n2)c(CC2CC2)n1
**Result** 4.95

====

- assaySystem: UniProt:Q9UBF8
- Sequence (Q9UBF8 whole entry): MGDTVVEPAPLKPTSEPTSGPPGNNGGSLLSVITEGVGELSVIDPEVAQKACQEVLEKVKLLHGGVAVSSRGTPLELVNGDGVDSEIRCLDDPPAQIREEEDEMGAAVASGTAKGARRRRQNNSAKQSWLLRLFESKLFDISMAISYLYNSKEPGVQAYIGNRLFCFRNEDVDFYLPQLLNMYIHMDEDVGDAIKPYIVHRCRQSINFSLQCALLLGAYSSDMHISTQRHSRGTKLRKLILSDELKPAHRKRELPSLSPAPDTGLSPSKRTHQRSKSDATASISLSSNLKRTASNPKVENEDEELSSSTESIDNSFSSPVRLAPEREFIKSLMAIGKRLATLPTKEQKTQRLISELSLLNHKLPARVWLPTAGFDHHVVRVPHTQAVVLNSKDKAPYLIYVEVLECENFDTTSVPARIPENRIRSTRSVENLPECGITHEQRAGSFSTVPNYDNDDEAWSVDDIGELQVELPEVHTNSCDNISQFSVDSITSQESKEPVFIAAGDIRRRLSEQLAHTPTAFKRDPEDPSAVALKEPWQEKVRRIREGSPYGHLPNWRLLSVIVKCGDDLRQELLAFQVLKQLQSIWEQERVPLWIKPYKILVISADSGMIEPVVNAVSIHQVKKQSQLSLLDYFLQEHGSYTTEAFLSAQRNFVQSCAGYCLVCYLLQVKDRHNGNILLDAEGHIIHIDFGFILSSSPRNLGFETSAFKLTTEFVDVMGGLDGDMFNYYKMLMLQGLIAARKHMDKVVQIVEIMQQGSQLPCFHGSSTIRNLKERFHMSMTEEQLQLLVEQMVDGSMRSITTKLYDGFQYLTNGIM
- methodDescription: Inhibition of PI4Kbeta (unknown origin) using D-myo-PtdIns as substrate incubated for 45 mins by ADP-Glo assay
measurementKind: IC50 (nM)
Your answer should be a plain number; it is taken to be in nM.

**Query** Form field: reported IC50 of CC(C)(O)CNc1ncc(-c2ccnc(Nc3ccnc(Cl)c3)n2)c(CC2CC2)n1
**Result** 1070

====

- assaySystem: PI3K p110 beta/p85 alpha (Homo sapiens, UniProt P42338)
- Sequence (P42338 whole entry, one chain of several): as the sequence (P42338 whole entry, canonical isoform) above
- methodDescription: Inhibition of human PIK3CB/PIK3R1 using PIP2/PS as substrate by ADP-Glo assay
measurementKind: IC50

**Query** Form field: reported IC50 of CC(C)(O)CNc1ncc(-c2ccnc(Nc3ccnc(Cl)c3)n2)c(CC2CC2)n1
**Result** > 10 µM

====

- assaySystem: PI3-kinase p110-alpha/p85-alpha (Homo sapiens, UniProt P42336)
- Sequence (P27986 whole entry): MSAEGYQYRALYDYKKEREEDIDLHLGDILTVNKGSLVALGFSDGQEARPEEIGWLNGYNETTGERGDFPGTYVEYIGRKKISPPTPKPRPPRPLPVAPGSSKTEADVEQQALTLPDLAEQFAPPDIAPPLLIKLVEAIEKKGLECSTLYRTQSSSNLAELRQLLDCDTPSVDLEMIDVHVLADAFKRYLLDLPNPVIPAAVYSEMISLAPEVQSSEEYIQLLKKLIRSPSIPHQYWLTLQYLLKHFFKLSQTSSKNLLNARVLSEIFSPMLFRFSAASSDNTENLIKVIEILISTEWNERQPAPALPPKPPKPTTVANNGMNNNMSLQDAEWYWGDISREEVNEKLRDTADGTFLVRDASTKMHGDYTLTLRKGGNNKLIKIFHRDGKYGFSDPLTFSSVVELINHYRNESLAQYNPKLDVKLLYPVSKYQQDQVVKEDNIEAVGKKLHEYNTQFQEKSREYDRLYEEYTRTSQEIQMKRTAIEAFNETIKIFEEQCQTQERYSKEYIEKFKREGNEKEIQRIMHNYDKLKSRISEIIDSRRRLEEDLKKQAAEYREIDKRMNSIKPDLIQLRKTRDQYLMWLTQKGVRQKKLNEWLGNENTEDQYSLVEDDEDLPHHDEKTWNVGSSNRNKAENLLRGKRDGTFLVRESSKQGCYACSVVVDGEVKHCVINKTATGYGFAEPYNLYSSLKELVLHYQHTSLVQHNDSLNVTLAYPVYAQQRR
- Sequence (P42336 whole entry): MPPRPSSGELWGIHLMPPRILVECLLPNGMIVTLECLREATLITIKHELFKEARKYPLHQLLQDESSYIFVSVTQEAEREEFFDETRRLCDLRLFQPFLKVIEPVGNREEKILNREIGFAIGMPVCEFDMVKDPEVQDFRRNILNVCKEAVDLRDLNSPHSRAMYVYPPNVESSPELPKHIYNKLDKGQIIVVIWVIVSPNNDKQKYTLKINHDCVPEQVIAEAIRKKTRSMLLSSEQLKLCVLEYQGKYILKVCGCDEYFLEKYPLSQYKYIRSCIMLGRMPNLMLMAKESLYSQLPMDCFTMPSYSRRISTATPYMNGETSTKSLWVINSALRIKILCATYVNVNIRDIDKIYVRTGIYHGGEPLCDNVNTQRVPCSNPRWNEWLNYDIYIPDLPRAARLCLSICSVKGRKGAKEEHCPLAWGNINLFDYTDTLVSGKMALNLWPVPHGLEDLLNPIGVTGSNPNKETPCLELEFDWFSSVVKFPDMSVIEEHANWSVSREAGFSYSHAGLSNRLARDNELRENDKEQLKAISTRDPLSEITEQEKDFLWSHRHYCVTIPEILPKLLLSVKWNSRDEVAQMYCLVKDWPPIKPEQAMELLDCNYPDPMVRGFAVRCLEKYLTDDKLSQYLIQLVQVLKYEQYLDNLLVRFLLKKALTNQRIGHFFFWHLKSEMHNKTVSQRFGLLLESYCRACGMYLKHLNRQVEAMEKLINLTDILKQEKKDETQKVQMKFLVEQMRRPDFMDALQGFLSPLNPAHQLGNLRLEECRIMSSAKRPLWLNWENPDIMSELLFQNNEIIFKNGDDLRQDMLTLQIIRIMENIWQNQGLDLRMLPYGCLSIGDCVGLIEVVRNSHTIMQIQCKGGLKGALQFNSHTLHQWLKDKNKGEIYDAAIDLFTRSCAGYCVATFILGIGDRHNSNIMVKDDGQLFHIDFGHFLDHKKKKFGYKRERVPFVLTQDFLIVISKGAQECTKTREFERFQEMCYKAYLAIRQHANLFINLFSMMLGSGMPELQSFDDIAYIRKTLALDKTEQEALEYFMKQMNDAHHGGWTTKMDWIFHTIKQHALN
- methodDescription: Inhibition of human PIK3CA/PIK3R1 using PIP2/PS as substrate by ADP-Glo assay
pIC50: −log10 of the molar value.
measurementKind: pIC50

**Query** Form field: reported pIC50 of CC(C)(O)CNc1ncc(-c2ccnc(Nc3ccnc(Cl)c3)n2)c(CC2CC2)n1
**Result** < 5.00

====

- assaySystem: Phosphatidylinositol 4-phosphate 5-kinase type-1 gamma (Homo sapiens, UniProt O60331)
- Sequence (O60331 whole entry): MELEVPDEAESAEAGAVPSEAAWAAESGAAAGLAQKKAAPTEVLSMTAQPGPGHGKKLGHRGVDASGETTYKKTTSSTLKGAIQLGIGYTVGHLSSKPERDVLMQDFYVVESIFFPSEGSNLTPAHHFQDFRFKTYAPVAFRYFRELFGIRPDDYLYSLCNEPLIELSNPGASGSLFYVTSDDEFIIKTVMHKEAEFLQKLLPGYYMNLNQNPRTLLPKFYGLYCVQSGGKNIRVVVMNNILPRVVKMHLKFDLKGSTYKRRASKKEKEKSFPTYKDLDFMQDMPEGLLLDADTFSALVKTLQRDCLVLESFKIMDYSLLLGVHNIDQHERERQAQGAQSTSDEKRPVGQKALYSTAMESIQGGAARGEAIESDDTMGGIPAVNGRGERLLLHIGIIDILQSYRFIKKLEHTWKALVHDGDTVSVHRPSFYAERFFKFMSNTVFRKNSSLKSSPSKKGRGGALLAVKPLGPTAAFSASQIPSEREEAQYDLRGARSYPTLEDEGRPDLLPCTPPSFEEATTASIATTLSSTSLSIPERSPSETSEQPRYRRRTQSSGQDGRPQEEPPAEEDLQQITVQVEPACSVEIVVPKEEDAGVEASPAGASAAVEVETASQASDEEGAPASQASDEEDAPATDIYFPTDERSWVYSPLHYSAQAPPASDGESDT
- methodDescription: Inhibition of PIP5K1C (unknown origin) using D-myo-PIP as substrate incubated for 45 mins by ADP-Glo assay
measurementKind: pIC50
Conceptually, pIC50 converts a concentration in mol/L into minus its log10.

**Query** Query pIC50 on Phosphatidylinositol 4-phosphate 5-kinase type-1 gamma (Homo sapiens, UniProt O60331) for CC(C)(O)CNc1ncc(-c2ccnc(Nc3ccnc(Cl)c3)n2)c(CC2CC2)n1
**Result** 6.42

====

- assaySystem: Phosphatidylinositol 4-kinase type 2-alpha (Homo sapiens)
pIC50: −log10 of the molar value.
measurementKind: pIC50

**Query** Query pIC50 on Phosphatidylinositol 4-kinase type 2-alpha (Homo sapiens) for CC(C)(O)CNc1ncc(-c2ccnc(Nc3ccnc(Cl)c3)n2)c(CC2CC2)n1
**Result** < 5.00

====

- assaySystem: Phosphatidylinositol 4,5-bisphosphate 3-kinase catalytic subunit gamma isoform (Homo sapiens, UniProt P48736)
- methodDescription: Inhibition of PI3Kgamma (unknown origin) using PtdIns(4,5)P2 as substrate preincubated for 20 mins followed by substrate addition and measured after 80 mins by Kinase-Glo assay
measurementKind: IC50
Give me the value, and tack the unit on after it.

**Query** Form field: reported IC50 of CC(C)(O)CNc1ncc(-c2ccnc(Nc3ccnc(Cl)c3)n2)c(CC2CC2)n1
**Result** 2680 nM
